Assay: Pharmacokinetic study in cynomolgus monkeys after oral (nasogastric) gavage, sublingual and intravenous administration
Format: in vivo
Conditions: both sexes, cynomolgus monkey, plasma, oral, 30 mg/kg, Plasma Bumetanide Dibenzylamide concentration, Mean, monkey, NG 30 mg/kg, Second Formulation (Form 3), 32.00 h, N=4
Description: A pharmacokinetic study was done in cynomolgus monkeys following single oral (nasogastric) gavage, sublingual, and intravenous administration. […] Calibration curves, blanks, and analytical QCs were prepared in monkey plasma (K2EDTA). The extracts were evaporated to dryness, reconstituted, and then analyzed by LC-MS/MS. The calibration range was 0.250-250 ng/mL for both analytes. If the criteria for either the calibration curve or the analytical QCs were not met, the analytical run was rejected. […]
MEASUREMENT_TYPE: concentration at 32 h (ng/mL)
Report as a plain number; the unit ng/mL is understood.

*Q* Name the recorded concentration at 32 h of the compound listed here: CCCCNc1cc(C(=O)N(Cc2ccccc2)Cc2ccccc2)cc(S(N)(=O)=O)c1Oc1ccccc1 [Bumetanide Dibenzylamide]
*A* 2.94
